Field: peptide exchange yield. Provide a value for each of the binders that follow.
target: T1, HLA-A*02:01 (human); test: UV-ligand exchange ELISA (anti-β2m), peptide exchange yield grade
T1 construct: MHC class I monomer made peptide-receptive by UV cleavage of a UV-sensitive ligand; also called peptide-receptive MHC molecules

Below, each entry is followed by its recorded peptide exchange yield result.
Prompt line: Quick one: peptide exchange yield of GLIRFPLMTI [peptide GLIRFPLMTI (SEQ ID NO: 168)] ?
Response line: 50 to 75%

Prompt line: Quick one: peptide exchange yield of KLNTETFGV [peptide KLNTETFGV (SEQ ID NO: 32)] ?
Response line: 20 to 50%

Prompt line: Quick one: peptide exchange yield of ALVQGILERV [peptide ALVQGILERV (SEQ ID NO: 12)] ?
Response line: 50 to 75%

Report peptide exchange yield for every entry below.
1. KLSDVWKEL [peptide KLSDVWKEL (SEQ ID NO: 143)]
2. GLDDRYSLV [peptide GLDDRYSLV (SEQ ID NO: 46)]
3. YLFEKTFNM [peptide YLFEKTFNM (SEQ ID NO: 11)]
4. KLFSILSTV [peptide KLFSILSTV (SEQ ID NO: 63)]
5. SILDDSFKL [peptide SILDDSFKL (SEQ ID NO: 42)]
6. ALLNGEYLLAA [peptide ALLNGEYLLAA (SEQ ID NO: 54)]
7. GLLEARGILGL [peptide GLLEARGILGL (SEQ ID NO: 166)]

Response line:
["50 to 75%", "50 to 75%", "50 to 75%", "20 to 50%", "≥ 75%", "50 to 75%", "50 to 75%"]
